- assay system: T1, mouse PD-L1 (soluble protein of the kinetic measurements) (mouse, UniProt Q9EP73 19-238, limits assumed)
- T1 construct: kept apart from the His-tag protein of the ELISA; also called mPD-L1
- T1 sequence (Q9EP73 19-238 limits assumed): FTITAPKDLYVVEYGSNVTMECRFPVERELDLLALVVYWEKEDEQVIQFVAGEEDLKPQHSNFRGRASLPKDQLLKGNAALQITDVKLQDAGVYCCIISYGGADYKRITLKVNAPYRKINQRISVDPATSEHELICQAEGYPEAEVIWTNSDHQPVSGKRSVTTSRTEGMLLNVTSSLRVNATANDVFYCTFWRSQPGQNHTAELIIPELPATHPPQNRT
- assay comment: BLI (Octet), antibody fixed on biosensor, PD-L1 in solution
property name: pKd
One number for each entry, as −log10 of the molar value.

Reference set (2 entries):
binder	val
ME4.A11 anti-PD-L1 antibody (IgG form) (antibody, V domains shown) VH: QVQLVESGAEVKKPGSSVKVSCKASGGTFNNYAVSWVRQAPGQGLEWMGRIIPILGIANYAQTFQGRVTITADKSTTTAYMELSSLRSEDTAVYYCARSRGGYAHGAFDIWGQGTMVTVSS VL: QFVLTQPPSVSGAPGQRVTISCTGSSSNIGAGYDVHWYQQLPGTAPKVLIYGNSDRPSGVPDRFSGSKSGTSASLAITGLQGEDKATYYCQSYDSRLSGPVFGTGTKVTVLG	8.31
ME4 anti-PD-L1 antibody (IgG form) (antibody, V domains shown, Converted to IgG with the vectors pIgGHD-6A6Hvy and pIgGLD-6A6Lgt; Expressed in Expi293F cells) VH: QVQLVESGAEVKKPGSSVKVSCKASGGTFNNYAVSWVRQAPGQGLEWMGRIIPILGIANYAQTFQGRVTITADKSTTTAYMELSSLRSEDTAVYYCARSYSGYAEGAFDIWGQGTMVTVSS VL: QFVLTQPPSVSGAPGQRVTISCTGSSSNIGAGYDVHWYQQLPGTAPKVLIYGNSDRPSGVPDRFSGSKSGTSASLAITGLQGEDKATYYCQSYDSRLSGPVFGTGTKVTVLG	7.43

Record pKd for all entries; do not skip any.
1. ME4.B10 anti-PD-L1 antibody (IgG form) (antibody, V domains shown) VH: QVQLVESGAEVKKPGSSVKVSCKASGGTFNNYAVSWVRQAPGQGLEWMGRIIPILGIANYAQTFQGRVTITADKSTTTAYMELSSLRSEDTAVYYCARSARGYAHGAFDIWGQGTMVTVSS VL: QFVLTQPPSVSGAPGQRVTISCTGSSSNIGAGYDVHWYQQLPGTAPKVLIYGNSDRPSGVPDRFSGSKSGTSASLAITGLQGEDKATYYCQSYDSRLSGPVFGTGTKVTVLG
2. ME4.A12 anti-PD-L1 antibody (IgG form) (antibody, V domains shown) VH: QVQLVESGAEVKKPGSSVKVSCKASGGTFNNYAVSWVRQAPGQGLEWMGRIIPILGIANYAQTFQGRVTITADKSTTTAYMELSSLRSEDTAVYYCARSHWGYAHGAFDIWGQGTMVTVSS VL: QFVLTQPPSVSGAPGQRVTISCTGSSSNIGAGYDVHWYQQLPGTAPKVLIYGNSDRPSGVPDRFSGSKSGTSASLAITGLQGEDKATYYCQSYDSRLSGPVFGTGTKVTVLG
3. ME4.A2 anti-PD-L1 antibody (IgG form) (antibody, V domains shown) VH: QVQLVESGAEVKKPGSSVKVSCKASGGTFNNYAVSWVRQAPGQGLEWMGRIIPILGIANYAQTFQGRVTITADKSTTTAYMELSSLRSEDTAVYYCARSSRGYAHGAFDIWGQGTMVTVSS VL: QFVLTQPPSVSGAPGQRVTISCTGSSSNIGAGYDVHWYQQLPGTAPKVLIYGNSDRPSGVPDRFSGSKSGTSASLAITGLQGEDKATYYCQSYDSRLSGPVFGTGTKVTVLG
4. ME4.B12 anti-PD-L1 antibody (IgG form) (antibody, V domains shown) VH: QVQLVESGAEVKKPGSSVKVSCKASGGTFNNYAVSWVRQAPGQGLEWMGRIIPILGIANYAQTFQGRVTITADKSTTTAYMELSSLRSEDTAVYYCARSSFGYSVGAFDIWGQGTMVTVSS VL: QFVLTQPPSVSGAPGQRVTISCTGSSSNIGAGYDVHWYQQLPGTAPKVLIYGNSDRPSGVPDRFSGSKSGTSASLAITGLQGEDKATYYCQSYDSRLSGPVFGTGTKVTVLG

1. 8.79
2. 8.58
3. 8.52
4. 8.91

Origin of measurements: patent US20210054078A1
